- Assay Text: pKa of the lipid by TNS fluorescence
- Format: physicochemical
Measurement Name: pKa
Lab note: jot down the number only; don't add units.

Please report the recorded pKa for CCCCC/C=C\C/C=C\CCCCCCCCOCC(CN1CCCCC1)OCCCCO[C@H]1CC[C@@]2(C)C(=CCC3C2CC[C@@]2(C)C3CC[C@@H]2[C@H](C)CCCC(C)C)C1 (stereo partly shown) .
5.71

// next record CCCCC/C=C\C/C=C\CCCCCCCCOCC(CN1CCCCC1)OCCOCCO[C@H]1CC[C@@]2(C)C(=CCC3C2CC[C@@]2(C)C3CC[C@@H]2[C@H](C)CCCC(C)C)C1 (stereo partly shown)
6.4

// next record CCCCC/C=C\C/C=C\CCCCCCCCOCC(CN1CCCCC1)OCCOCCOC(=O)O[C@H]1CC[C@@]2(C)C(C=CC3C2CC[C@@]2(C)C3CC[C@@H]2[C@H](C)CCCC(C)C)C1 (stereo partly shown)
5.84

// next record CCCCC/C=C\C/C=C\CCCCCCCCOCC(CN(C)C)OCCOCCO[C@H]1CC[C@@]2(C)C(=CC[C@H]3[C@@H]4CC[C@H]([C@H](C)CCCC(C)C)[C@@]4(C)CC[C@@H]32)C1 (stereo partly shown) [E0172, reference compound]
8.5
